- TGT: Human PPARδ LBD (Homo sapiens (Human), UniProt Q03181)
- Sequence (Q03181 128-441 limits assumed): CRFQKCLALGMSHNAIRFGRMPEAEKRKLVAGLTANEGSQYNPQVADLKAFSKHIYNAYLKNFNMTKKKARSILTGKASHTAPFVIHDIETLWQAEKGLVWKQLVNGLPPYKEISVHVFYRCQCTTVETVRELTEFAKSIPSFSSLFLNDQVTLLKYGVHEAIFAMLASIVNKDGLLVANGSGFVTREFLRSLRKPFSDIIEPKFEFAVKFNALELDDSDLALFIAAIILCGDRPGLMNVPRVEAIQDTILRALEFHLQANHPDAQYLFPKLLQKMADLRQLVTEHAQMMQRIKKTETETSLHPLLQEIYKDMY
- METHOD DESCRIPTION: PPAR delta transactivation (PPARδ Activity Screen, GAL4-PPARδ LBD luciferase reporter in CV-1 cells)
- SETUP CONDITIONS: CV-1 cells, 24 h
PROPERTY: EC50 (nM)
Give the value in nM but do not write nM after it.

**Query** Give EC50 for C/C(=C\COc1ccc(C(F)(F)F)cc1CN(C)C(=O)c1ccc(-c2ccco2)cc1)CCC(=O)O tested on Human PPARδ LBD (Homo sapiens (Human), UniProt Q03181).
**Result** 683
